From: PubChem BioAssay (NCI)

# System: NCI-H226 lung
# Assay Name: NCI-60 one-dose screen, 48 h (100 = growth as untreated, 0 = no growth, -100 = all killed)
# Condition: 10 µM unless noted
The panel holds about 83,000 compounds, 20% with a hit somewhere; the sample as a whole holds those more often.
Could you label it MET if measured growth is 70% or higher, and NOT MET otherwise?

# bool: growth of O=C(c1cccc(O)c1O)c1cn(Cc2ccc(F)cc2)c2cccc(O)c12 >= 70%
NOT MET

# bool: growth of C/C(Cc1ccc(Cl)cc1)=C(\c1ccc(OCCN2CCOCC2)cc1)c1ccc(OC(=O)Cc2ccccc2)cc1 >= 70%
MET

Threshold query (growth >= 70%) on CC[S][Hg][Cl]
MET

API: above_or_equal(metric=growth, cutoff=70%) for item CN(C)CC(C(=O)Cc1ccccc1)c1ccccc1 (stereo unspecified)
MET

Check if growth >= 70% (inclusive). Item: C=CCc1cc2c(cc1OCC)OCO2
MET

Check if growth >= 70% (inclusive). Item: CC[C@@H]1[C@@H](C)O[C@@](O)([C@@H](C)[C@H](O)[C@H](C)[C@H]2OC(=O)/C=C/C=C/[C@H](C)[C@@H]([C@@H](C)[C@@H](O)[C@H](C)[C@@]3(O)C[C@@H](O[C@H]4C[C@@H](O)[C@H](O)C(C)O4)[C@H](CC)[C@@H](C)O3)OC(=O)/C=C/C=C/[C@@H]2C)C[C@H]1O[C@@H]1C[C@@H](O)[C@H](O)C(C)O1 (stereo partly specified)
NOT MET

Would you say Cc1cnc(/C=C/C(=O)O)cc1-c1cc2c(cc1C)C(C)(C)CCC2(C)C shows growth at minimum 70%?
MET

Decide: is the reported value of growth for CCCCCCCCOC(=O)CCN1CC1 equal to or greater than 70%?
MET

Can COc1cccc(C=NC(Cc2cnc[nH]2)C(=O)O)c1O (stereo unspecified) be said to have growth at or above 70%?
MET

Does the compound CC12CC=CCC1CCC1C2CCC2(C)C(c3ccc(=O)oc3)CCC12O (stereo unspecified) have recorded growth that is 70% or more?
NOT MET

Is it the case that COc1cc2c(cc1OCCCCCn1c(-c3ccco3)nc3ccccc31)N=C[C@@H]1CCCN1C2=O has growth reaching or exceeding 70%?
NOT MET

I'd appreciate it if you could say whether CNC(=O)Oc1ccc(N(C)C)cc1C(C)C has growth at least equal to 70%.
MET

Is growth at least 70%? Consider O=C(CCCCCNC1=CC(=O)c2ccccc2C1=O)NCCC[Te]c1ccccc1
NOT MET

hey, is growth for this one >= 70%? COc1cc(C=C2c3ccccc3C(=O)c3ccccc32)ccc1OCCCCOc1cc2c(cc1OC)C(=O)N1CCCC1C=N2 (stereo unspecified)
NOT MET

Does the compound Cc1cc(C)c(CBr)c(C)c1 have recorded growth that is 70% or more?
MET

hey, is growth for this one >= 70%? CN1CCC(O)(c2ccc(F)cc2)C(C(=O)c2ccc(F)cc2)C1 (stereo unspecified)
MET

Reported growth reaches at least 70% for COc1ccc2c(c1)c(C1(O)CC(CSC#N)OC1=O)cn2C(=O)c1ccc(Cl)cc1 (stereo unspecified) ?
MET

Check if growth >= 70% (inclusive). Item: CC[C@H](C)[C@H](NC(=O)[C@H]1CCCCN1C)C(=O)N(C)[C@H](C[C@@H](OC(C)=O)c1nc(C(=O)NC23CC(C(=O)OC)(C2)C3)cs1)C(C)C
NOT MET

Does growth meet or surpass 70% for Fc1ccc2c(c1)c(-c1nc(-c3c[nH]c4ncccc34)cs1)cn2CCCCN1CCCCC1 ?
NOT MET

Threshold query (growth >= 70%) on CCC(C)(C)[C@H](NC(=O)[C@H]1CCCCN1C)C(=O)N(C)[C@H](C[C@@H](OC(C)=O)c1nc(C(=O)N[C@@H](Cc2ccccc2)C[C@H](C)C(=O)O)cs1)C(C)C
NOT MET

Decide: is the reported value of growth for CCOC(=O)c1c(C)n(Cc2ccccc2)c2cc(CN(C)C)c(O)cc12 equal to or greater than 70%?
MET

# check: growth of COc1ccc(/C=C\c2cc(OC)c(OC)c(OC)c2)cc1OCC(=O)Nc1nc2ccc(OC(F)(F)F)cc2s1 is greater than or equal to 70%
MET

I'd appreciate it if you could say whether CCCCOc1ccc(C(N)Cc2ccccc2)cc1 (stereo unspecified) has growth at least equal to 70%.
MET

Form field: growth at least 70%? Entry: O=C(CCCCCCC(=O)Nc1ccc(N(CCCl)CCCl)cc1)NO
NOT MET

Dear colleague, could you confirm whether CCCC(C)C1(CC)C(=O)NC(=O)N(C)C1=O (stereo unspecified) has growth at or above 70%?
MET

Hello, I need to know if O=C(O)C(O)C(O)C1[O][Sb]([c]2ccc([N+](=O)[O-])cc2)[O]C1CO (stereo unspecified) has measured growth not below 70%. Thanks!
MET

Check this compound for growth at or above 70%: C/C(=C\c1ccn(-c2ccccc2N)n1)[C@@H]1C[C@@H]2O[C@]2(C)CCC[C@H](C)[C@H](O)[C@@H](C)C(=O)C(C)(C)[C@@H](O)CC(=O)O1
NOT MET

API: above_or_equal(metric=growth, cutoff=70%) for item CC1=C(CCCOC(=O)[C@H](N)CC(C)C)C2=C(C)C3(CC3)[C@@](C)(O)C(=O)C2=C1
NOT MET

Reported growth at or above 70%? CC1=C(CCCNS(C)(=O)=O)C2=C(C)C3(CC3)[C@@](C)(O)C(=O)C2=C1
NOT MET

# check: growth of O=C(CCl)c1ccc([N+](=O)[O-])o1 is greater than or equal to 70%
NOT MET

Item COC(=O)[C@@H](C)C[C@H](Cc1ccccc1)NC(=O)c1csc([C@@H](C[C@H](C(C)C)N(C)C(=O)[C@@H](NC(=O)[C@H]2CCCN2C)C2CC2)OC(C)=O)n1 with growth of 70% or above?
NOT MET
